Attribution: ChEMBL document CHEMBL1795235

Tested on: Enterococcus
Test: Antibacterial activity against vancomycin resistant Enterococcus FN-1 after 24 hrs by microdilution method
Assay type: functional
Conditions: FN-1, 24 h
Measured property: MIC (µg/mL)
Numbers only; they are read as µg/mL.

Check out these entries, answers already filled in.
### Prompt Dear colleague, I am looking for the recorded MIC of the following compound: `O=C(O[C@H]1[C@H](Oc2c(-c3ccc(O)c(O)c3)oc3cc(O)cc(O)c3c2=O)O[C@H](CO)[C@@H](O)[C@@H]1OC(=O)c1ccc(F)cc1)c1ccc(F)cc1`
### Response 2

### Prompt For `CCOc1ccc(C(=O)OC[C@H]2O[C@@H](Oc3c(-c4ccc(O)c(O)c4)oc4cc(O)cc(O)c4c3=O)[C@H](OC(=O)c3ccc(OCC)cc3)[C@@H](O)[C@H]2O)cc1` , what is its reported MIC?
### Response 8

### Prompt Tell me the measured MIC of `CCOc1ccc(CCC(=O)OC[C@H]2O[C@@H](Oc3c(-c4ccc(O)c(O)c4)oc4cc(O)cc(O)c4c3=O)[C@H](OC(=O)CCc3ccc(OCC)cc3)[C@@H](O)[C@H]2O)cc1` , please.
### Response 16

### Prompt Please give the measured MIC for this compound: `O=C(OC[C@H]1O[C@@H](Oc2c(-c3ccc(O)c(O)c3)oc3cc(O)cc(O)c3c2=O)[C@H](OC(=O)c2ccc(F)cc2)[C@@H](O)[C@H]1O)c1ccc(F)cc1`
### Response 4

Shifting focus to the compound that follows.
### Prompt Which measured MIC value corresponds to `O=C(CCCc1ccc(F)cc1)OC[C@H]1O[C@@H](Oc2c(-c3ccc(O)c(O)c3)oc3cc(O)cc(O)c3c2=O)[C@H](OC(=O)CCCc2ccc(F)cc2)[C@@H](O)[C@H]1O` ?
### Response 8
